Value source: patent US20240262910A1

Target: T1, human CD33 IgC2 type domain with 6xHis-tag (human, UniProt P20138 140-259)
T1 construct: Produced at LakePharma; also called huCD33IgC2-His; CD33 IgC2-6xHis
T1 sequence (P20138 other isoform, or with tags, fused parts or gaps): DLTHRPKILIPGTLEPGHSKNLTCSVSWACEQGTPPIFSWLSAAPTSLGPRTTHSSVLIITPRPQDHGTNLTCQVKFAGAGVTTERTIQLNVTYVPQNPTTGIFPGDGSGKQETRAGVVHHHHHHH
Assay: ELISA, hybridoma supernatant
Overview of recorded RLU for various binders
// units = RLU; emit number, no label

The cases that follow already have their RLU on record.
Need RLU, item 3-P14 (hybridoma antibody) (antibody, V domains shown, AlivaMab mouse hybridoma antibody; also called 3-P14-A) VH: EVQLLESGGGLVQPGGSLRLSCAASGFTFSTYAMSWVRQAPGKGLEWVSAISGRGGSTYYTDSVKGRFTISRDNSKNTVSLQMNSLRAEDTAVYYCAGRGDYYYYYGMDVWGQGTTVTVSA VL: DIVMTQSPLSSPVTLGQPASFSCRSSQSLVYSDGNTYLSWLQQRPGQPPRLLIYKISNRFSGVPDRFSGSGAGTDFTLKISRVEAEDVGVYYCMQSTQFPHTFGQGTKLEIK
107000

And what about the binder 1-H19 (antibody, V domains shown, AlivaMab mouse hybridoma antibody; also called 1-H19-A) VH: QVQLQESGPGLVKPSETLSLTCTVSGGSISTYYWSWIRQPAGKGLEWIGRIYTSGNTNYNPSLKSRVTMSVDTSKNQLSLKLRSVTAADTAVYYCARDGDNRNSDAFDIWGQGTMVTVSS VL: QSVLTQPPSVSGAPGQRVTISCTGSSSNIGAGYDVHWYQQLPGTAPKLLIYGNSNRPSGVPDRFSGSKSGTSASLAITGLQAEDEADYYCQSYDRSLSGWVFGGGTKLTVL ?
58900

Then there is this binder:
Query: RLU; subject: 1-J19 (hybridoma antibody) (antibody, V domains shown, AlivaMab mouse hybridoma antibody; also called 1-J19-A) VH: QVQLQQSGPGLVKPSQTLSLTCAISGDSVSSNSAAWNWIRQSPSRGLEWLGRTYFRSKWYNVYAVSVKSRITINPDTSKNQFSLQLNSVTPEDTAVYYCASEGGSYYDHWGQGTLVTVSS VL: DIQMTQSPSSVSASVGDRVTITCRASQGISNWLTWYQQKPGKAPKLLIYAASSLQSGVPSRFSGSGSGTDFTLTISSLQPEDFATYYCQQADSFPFTFGPGTKVDIK
15200
